Target: stromal cell derived factor-1 (SDF-1, also known as CXCL12), wild type (UniProt P48061 22-93)
REPORTED METRIC: Kd (nM)
Answer in nM, number only, no unit symbol.

Documented Kd of GSMEGISIYTSDNYTEEMGSGDYDSMKEPAFREENANFNK (sulfotyrosine at positions 7, 12 and 21) [CXCR4 N-terminal peptide p38-sY3 (sulfotyrosine at positions 7, 12 and 21)] : 200
